Target: Interstitial collagenase (Homo sapiens, UniProt P03956)
Sequence (P03956 whole entry): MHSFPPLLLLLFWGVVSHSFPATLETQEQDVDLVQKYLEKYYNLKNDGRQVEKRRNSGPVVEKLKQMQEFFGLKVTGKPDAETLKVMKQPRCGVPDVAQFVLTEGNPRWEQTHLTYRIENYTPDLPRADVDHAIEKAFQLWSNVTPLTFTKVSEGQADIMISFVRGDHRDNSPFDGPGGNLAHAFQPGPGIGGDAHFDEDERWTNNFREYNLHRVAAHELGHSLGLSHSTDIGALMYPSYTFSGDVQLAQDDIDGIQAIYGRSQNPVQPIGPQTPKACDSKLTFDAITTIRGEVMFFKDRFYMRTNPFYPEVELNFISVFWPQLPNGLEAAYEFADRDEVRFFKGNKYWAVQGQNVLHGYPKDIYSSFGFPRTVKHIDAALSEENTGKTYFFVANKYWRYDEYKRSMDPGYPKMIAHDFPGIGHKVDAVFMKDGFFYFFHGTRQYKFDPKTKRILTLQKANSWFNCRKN
pIC50: −log10 of the molar value.
Measured Endpoint: pIC50

COCCN(C1(C(=O)NO)CN(C(=O)C(C)C)C1)S(=O)(=O)c1ccc(OCc2cc(C)nc3ccccc23)cc1 < 5.00
